Target: human IgG2 (Homo sapiens, UniProt P01859)
Construct: all human subtypes derived from myeloma patients; purchased Calbiochem 400122; host or cells: myeloma patients
Sequence (P01859 1-326 isoform P01859-1): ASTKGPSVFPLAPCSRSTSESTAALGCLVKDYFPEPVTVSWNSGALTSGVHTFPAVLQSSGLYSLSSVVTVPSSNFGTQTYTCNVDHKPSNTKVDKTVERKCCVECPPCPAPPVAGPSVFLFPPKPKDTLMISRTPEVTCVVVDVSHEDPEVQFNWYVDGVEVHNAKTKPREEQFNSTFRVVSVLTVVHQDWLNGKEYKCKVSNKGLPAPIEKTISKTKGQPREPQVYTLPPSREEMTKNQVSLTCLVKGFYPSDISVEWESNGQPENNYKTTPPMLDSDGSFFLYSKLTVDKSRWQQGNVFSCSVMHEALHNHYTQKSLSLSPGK
Format: binding
Settings: Table 20; average ligand density 1.9 μmole/ml
Non-standard residues stand in square brackets, D forms with d. Nle = CCCC[C@H](N)C(=O)O
ATTRIBUTE_MEASURED: Batch Binding (% Capture of Total Load) hIgG2 (%)

SUBSTANCE: Ac-VCVYTTWGELIWCDNHEPGPEGGGK-NH2 (not fully specified (bridges); printed as Ac-VCVYTTWGELIWCDNHEPGPEGGGK-NH2; cysteine pairing not given here) [DX1067]
UNIT_ABBREV: %
MEASUREMENT: 28

SUBSTANCE: Ac-ACVYTTWGELIWCDNHEPGPEGGGK-NH2 (not fully specified (bridges); printed as Ac-ACVYTTWGELIWCDNHEPGPEGGGK-NH2; cysteine pairing not given here) [DX1064]
UNIT_ABBREV: %
MEASUREMENT: 63

SUBSTANCE: Ac-CVYTTWGELIWCDNHEPGPEGGGK-NH2 (not fully specified (bridges); printed as Ac-CVYTTWGELIWCDNHEPGPEGGGK-NH2; cysteine pairing not given here) [DX1069]
UNIT_ABBREV: %
MEASUREMENT: 68

SUBSTANCE: Ac-[Nle]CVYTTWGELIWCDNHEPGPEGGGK-NH2 (not fully specified (bridges); printed as Ac-[Nle]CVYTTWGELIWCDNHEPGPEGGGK-NH2; cysteine pairing not given here) [DX1068]
UNIT_ABBREV: %
MEASUREMENT: 25

SUBSTANCE: Ac-EHMCVYTTWGELIWCDNHEPGPEGGGK-NH2 (not fully specified (bridges); printed as Ac-EHMCVYTTWGELIWCDNHEPGPEGGGK-NH2; cysteine pairing not given here) [DX1063]
UNIT_ABBREV: %
MEASUREMENT: 63

SUBSTANCE: Ac-DHMCVYTTWGELIWCDNHEPGPEGGGK-NH2 (not fully specified (bridges); printed as Ac-DHMCVYTTWGELIWCDNHEPGPEGGGK-NH2; cysteine pairing not given here) [DX1062]
UNIT_ABBREV: %
MEASUREMENT: 63

###

Tested on: human IgG
Format: binding
Conditions: Table 20; average ligand density 1.9 μmole/ml
ATTRIBUTE_MEASURED: Batch Binding (% Capture of Total Load) hIgG

SUBSTANCE: Ac-DHMCVYTTWGELIWCDNHEPGPEGGGK-NH2 (not fully specified (bridges); printed as Ac-DHMCVYTTWGELIWCDNHEPGPEGGGK-NH2; cysteine pairing not given here) [DX1062]
MEASUREMENT: 73%

SUBSTANCE: Ac-VCVYTTWGELIWCDNHEPGPEGGGK-NH2 (not fully specified (bridges); printed as Ac-VCVYTTWGELIWCDNHEPGPEGGGK-NH2; cysteine pairing not given here) [DX1067]
MEASUREMENT: 44%

###

Readings of Batch Binding (% Capture of Total Load) hIgG4 for the listed substances
Target: IgG4 (Homo sapiens, UniProt P01861)
Sequence (P01861 1-327 isoform P01861-1): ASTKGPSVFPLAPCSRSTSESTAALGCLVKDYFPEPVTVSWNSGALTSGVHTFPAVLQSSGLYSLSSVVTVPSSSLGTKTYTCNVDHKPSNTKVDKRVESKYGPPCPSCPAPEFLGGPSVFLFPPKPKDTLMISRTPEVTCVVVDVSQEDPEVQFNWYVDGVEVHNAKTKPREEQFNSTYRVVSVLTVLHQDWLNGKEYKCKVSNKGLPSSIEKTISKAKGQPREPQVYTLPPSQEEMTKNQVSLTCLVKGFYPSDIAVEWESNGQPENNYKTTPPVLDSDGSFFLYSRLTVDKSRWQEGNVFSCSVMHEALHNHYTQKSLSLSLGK
Format: binding
Parameters: all human subtypes derived from myeloma patients; purchased Calbiochem 400126; host or cells: myeloma patients
Settings: Table 20; average ligand density 1.9 μmole/ml
ATTRIBUTE_MEASURED: Batch Binding (% Capture of Total Load) hIgG4 (%)

SUBSTANCE: Ac-VCVYTTWGELIWCDNHEPGPEGGGK-NH2 (not fully specified (bridges); printed as Ac-VCVYTTWGELIWCDNHEPGPEGGGK-NH2; cysteine pairing not given here) [DX1067]
UNIT_ABBREV: %
MEASUREMENT: 25
--
SUBSTANCE: Ac-ACVYTTWGELIWCDNHEPGPEGGGK-NH2 (not fully specified (bridges); printed as Ac-ACVYTTWGELIWCDNHEPGPEGGGK-NH2; cysteine pairing not given here) [DX1064]
UNIT_ABBREV: %
MEASUREMENT: 39
